Source listed as patent US20250313535A1.

experimental-system: α4β7 integrin (Homo sapiens (Human), UniProt P13612+P26010)
Sequence (P13612 34-1032): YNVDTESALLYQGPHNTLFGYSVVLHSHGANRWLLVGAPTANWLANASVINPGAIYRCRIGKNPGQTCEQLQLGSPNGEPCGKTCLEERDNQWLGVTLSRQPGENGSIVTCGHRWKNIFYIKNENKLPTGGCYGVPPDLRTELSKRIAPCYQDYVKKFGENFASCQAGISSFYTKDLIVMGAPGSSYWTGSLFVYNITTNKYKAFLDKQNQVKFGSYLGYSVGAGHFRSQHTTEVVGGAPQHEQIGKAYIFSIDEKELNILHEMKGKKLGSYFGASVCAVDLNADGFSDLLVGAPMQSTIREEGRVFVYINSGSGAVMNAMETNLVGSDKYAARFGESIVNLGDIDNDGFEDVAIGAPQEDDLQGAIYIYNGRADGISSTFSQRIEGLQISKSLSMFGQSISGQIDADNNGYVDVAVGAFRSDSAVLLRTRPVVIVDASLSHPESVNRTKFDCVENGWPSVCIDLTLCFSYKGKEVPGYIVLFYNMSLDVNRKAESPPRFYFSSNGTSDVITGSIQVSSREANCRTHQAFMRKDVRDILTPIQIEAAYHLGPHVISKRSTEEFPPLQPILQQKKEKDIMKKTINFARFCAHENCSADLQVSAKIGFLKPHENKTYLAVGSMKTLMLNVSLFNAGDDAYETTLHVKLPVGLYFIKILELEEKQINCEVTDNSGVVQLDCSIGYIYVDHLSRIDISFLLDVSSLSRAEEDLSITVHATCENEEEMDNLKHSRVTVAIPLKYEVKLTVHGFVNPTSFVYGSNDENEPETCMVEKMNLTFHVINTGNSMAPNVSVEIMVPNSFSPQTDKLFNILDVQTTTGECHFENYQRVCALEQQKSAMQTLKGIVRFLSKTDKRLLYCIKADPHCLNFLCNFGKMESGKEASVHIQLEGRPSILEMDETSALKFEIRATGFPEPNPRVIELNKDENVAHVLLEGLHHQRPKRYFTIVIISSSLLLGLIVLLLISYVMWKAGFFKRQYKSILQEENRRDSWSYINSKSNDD
Sequence (P26010 20-798): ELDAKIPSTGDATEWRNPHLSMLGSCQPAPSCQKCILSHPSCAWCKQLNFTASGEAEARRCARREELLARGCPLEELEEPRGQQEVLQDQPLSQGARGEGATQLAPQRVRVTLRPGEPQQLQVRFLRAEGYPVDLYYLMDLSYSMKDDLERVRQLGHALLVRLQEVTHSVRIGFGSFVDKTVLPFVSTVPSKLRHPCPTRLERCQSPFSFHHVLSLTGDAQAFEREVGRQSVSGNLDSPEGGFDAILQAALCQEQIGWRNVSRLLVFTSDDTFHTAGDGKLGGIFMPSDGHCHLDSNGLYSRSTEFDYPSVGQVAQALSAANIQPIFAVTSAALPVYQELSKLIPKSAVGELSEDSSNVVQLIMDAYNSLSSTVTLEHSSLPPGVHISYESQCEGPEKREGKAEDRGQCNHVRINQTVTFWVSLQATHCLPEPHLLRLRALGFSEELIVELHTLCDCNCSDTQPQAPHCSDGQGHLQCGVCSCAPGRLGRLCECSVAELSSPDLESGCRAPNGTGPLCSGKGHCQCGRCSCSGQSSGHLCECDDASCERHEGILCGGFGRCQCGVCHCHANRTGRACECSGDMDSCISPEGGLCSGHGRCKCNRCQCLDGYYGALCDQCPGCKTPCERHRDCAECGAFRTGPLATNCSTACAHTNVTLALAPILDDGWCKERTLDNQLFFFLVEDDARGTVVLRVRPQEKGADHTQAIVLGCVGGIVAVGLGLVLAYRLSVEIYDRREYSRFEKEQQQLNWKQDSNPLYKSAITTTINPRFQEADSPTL
assay: Integrin Adhesion Assay: Protocol 4 (MAdCAM-coated plate, RPMI-8866 cells with stable LOF mutation of the ITGB1 gene)
Type: cell-based
experimental-parameters: Protocol 4; RPMI-8866 cells with LOF mutation of ITGB1, MAdCAM; read-out: Mean IC50 α4β7 KO
Kindly supply the reported IC50 values for the records listed here.

-- ask // returns reported IC50 for input `COc1ccc(CN2CCC(F)(F)CC2)c(OC)c1-c1cccc2c(C[C@H](NC(=O)C3(C(F)(F)F)CCN(CC(F)F)CC3)C(=O)O)cccc12`
-- reply 10 to 100 nM

-- ask // returns reported IC50 for input Cn1c(=O)c(-c2cccc3c(C[C@H](NC(=O)C4(C)CCCN(C5COC5)CC4)C(=O)O)cccc23)c(C(F)(F)F)c2ccccc21 (stereo partly drawn)
-- reply 10 to 100 nM

-- ask // returns reported IC50 for input `CC1(C)CCN(Cc2cnc(-c3cccc4c(C[C@H](NC(=O)C5(C(F)(F)F)CCN(CC(F)(F)F)CC5)C(=O)O)cccc34)c3ccccc23)CC1`
-- reply < 10 nM

-- ask // returns reported IC50 for input `O=C(O)[C@H](Cc1cccc2c(-c3nccc4ccc(CCCN5CCC6(CC5)CC6)cc34)cccc12)NC(=O)C1(C(F)(F)F)CCN(CC(F)F)CC1`
-- reply < 10 nM

-- ask // returns reported IC50 for input `C[C@@H]1CN(Cc2cnc(-c3cccc4c(C[C@H](NC(=O)C5(C(F)(F)F)CCN(CC(F)(F)F)CC5)C(=O)O)cccc34)c3ccccc23)C[C@H](C)N1C1CC1`
-- reply < 10 nM

-- ask // returns reported IC50 for input `COc1ccc(C2(N(C)C)CC2)c(OC)c1-c1cccc2c(C[C@H](NC(=O)c3c(C)cccc3F)C(=O)O)cccc12`
-- reply < 10 nM
